Recorded Buffer Stability (37° C.) % Remaining (at 16-23 hours) SIF for the following compounds
# measurementDescription: Buffer Stability (37° C.)
# experimentalConditions: SIF
readoutType: Buffer Stability (37° C.) % Remaining (at 16-23 hours) SIF (%)

>  <compoundStructureString>
COc1ccc2c(c1)c(/C=C1\Oc3cc(OC(=O)C(C)(C)C)cc(OC(=O)C(C)(C)C)c3C1=O)cn2CCCN(C)C

>  <observedValue>
0

$$$$
>  <compoundStructureString>
COc1ccc2[nH]c(-c3ccccc3)c(/C=C3\Oc4cc(OC(=O)Oc5ccccc5)ccc4C3=O)c2c1

>  <observedValue>
35

$$$$
>  <compoundStructureString>
COc1ccc2c(c1)c(/C=C1\Oc3cc(OC(=O)N(C(C)C)C(C)C)ccc3C1=O)c(C)n2CCN1CCN(C)CC1

>  <observedValue>
94

$$$$
>  <compoundStructureString>
COc1ccc2c(c1)c(/C=C1\Oc3cc(OC(=O)N(C)c4ccccc4)ccc3C1=O)c(C)n2CCN1CCN(C)CC1

>  <observedValue>
100

$$$$
>  <compoundStructureString>
COc1ccc2[nH]c(-c3ccccc3)c(/C=C3\Oc4cc(OC(=O)OC(C)C)cc(OC(=O)OC(C)C)c4C3=O)c2c1

>  <observedValue>
0

$$$$
>  <compoundStructureString>
COc1ccc2c(c1)c(/C=C1\Oc3cc(OC(=O)c4ccccc4)cc(OC(=O)c4ccccc4)c3C1=O)c(C)n2CCN1CCN(C)CC1

>  <observedValue>
64

$$$$
>  <compoundStructureString>
COc1ccc2c(c1)c(/C=C1\Oc3cc(O)cc(O)c3C1=O)cn2CCCN(C)C

>  <observedValue>
57

$$$$
>  <compoundStructureString>
COc1ccc2[nH]c(-c3ccccc3)c(/C=C3\Oc4cc(OC(=O)N(C)C)ccc4C3=O)c2c1

>  <observedValue>
101

$$$$
>  <compoundStructureString>
COc1ccc2[nH]c(-c3ccccc3)c(/C=C3\Oc4cc(OC(C)=O)cc(OC(C)=O)c4C3=O)c2c1

>  <observedValue>
0

$$$$
>  <compoundStructureString>
COc1ccc2[nH]c(-c3ccccc3)c(/C=C3\Oc4cc(O)ccc4C3=O)c2c1

>  <observedValue>
97

$$$$
>  <compoundStructureString>
COc1ccc2c(c1)c(/C=C1\Oc3cc(OC(=O)N(c4ccccc4)c4ccccc4)cc(OC(=O)N(c4ccccc4)c4ccccc4)c3C1=O)cn2CCCN(C)C

>  <observedValue>
45

$$$$
>  <compoundStructureString>
COc1ccc2[nH]c(-c3ccccc3)c(/C=C3\Oc4cc(OC(=O)N(c5ccccc5)c5ccccc5)ccc4C3=O)c2c1

>  <observedValue>
100

$$$$
>  <compoundStructureString>
CN(C)C(=O)Oc1cc(OC(=O)N(C)C)c2c(c1)O/C(=C\c1cn(C)c3cccc(-c4ccccc4)c13)C2=O

>  <observedValue>
100

$$$$
>  <compoundStructureString>
COc1ccc2c(c1)c(/C=C1\Oc3cc(OC(=O)N(C)C)cc(OC(=O)N(C)C)c3C1=O)cn2CCCN(C)C

>  <observedValue>
100

$$$$
>  <compoundStructureString>
COc1ccc2[nH]c(-c3ccccc3)c(C=C3Oc4cc(O)cc(O)c4C3=O)c2c1

>  <observedValue>
77

$$$$
>  <compoundStructureString>
CN(C)C(=O)Oc1cccc2c1C(=O)/C(=C/c1cn(C)c3nccc(N4CC5CCC(C4)O5)c13)O2

>  <observedValue>
100

$$$$
>  <compoundStructureString>
COc1ccc2[nH]c(-c3ccccc3)c(/C=C3\Oc4cc(OC(=O)N(c5ccccc5)c5ccccc5)cc(OC(=O)N(c5ccccc5)c5ccccc5)c4C3=O)c2c1

>  <observedValue>
98

$$$$
>  <compoundStructureString>
COc1ccc2c(c1)c(/C=C1\Oc3cc(OC(=O)c4ccccc4)cc(OC(=O)c4ccccc4)c3C1=O)cn2CCCN(C)C

>  <observedValue>
0

$$$$
>  <compoundStructureString>
COc1ccc2[nH]c(-c3ccccc3)c(/C=C3\Oc4cc(OC(=O)c5ccccc5)ccc4C3=O)c2c1

>  <observedValue>
0

$$$$
>  <compoundStructureString>
COc1ccc2c(c1)c(/C=C1\Oc3cc(OC(=O)N(C)C)cc(OC(=O)N(C)C)c3C1=O)c(C)n2CCN1CCN(C)CC1

>  <observedValue>
100

$$$$
>  <compoundStructureString>
COC(=O)Oc1cc(OC(=O)OC)c2c(c1)O/C(=C\c1c(-c3ccccc3)[nH]c3ccc(OC)cc13)C2=O

>  <observedValue>
0

$$$$
>  <compoundStructureString>
CN(C)C(=O)Oc1cc(OC(=O)N(C)C)c2c(c1)O/C(=C\c1cn(C)c3nccc(-c4ccccc4)c13)C2=O

>  <observedValue>
100

$$$$
>  <compoundStructureString>
COc1ccc2[nH]c(-c3ccccc3)c(/C=C3\Oc4cc(OC(=O)Oc5ccccc5)cc(OC(=O)Oc5ccccc5)c4C3=O)c2c1

>  <observedValue>
0

$$$$
>  <compoundStructureString>
COc1ccc2[nH]c(-c3ccccc3)c(/C=C3\Oc4cc(OC(=O)C(C)(C)C)cc(OC(=O)C(C)(C)C)c4C3=O)c2c1

>  <observedValue>
0

$$$$
>  <compoundStructureString>
COc1ccc2c(c1)c(/C=C1\Oc3cc(OC(=O)OC(C)C)cc(OC(=O)OC(C)C)c3C1=O)cn2CCCN(C)C

>  <observedValue>
0

$$$$
